# Target: T1, Fc Receptor-like 5 (FcRL5), full length, overexpressed on 3T3 or Raji cells (human, UniProt Q96RD9 16-977)
# T1 construct: also called 3T3-FcRL5
# T1 sequence: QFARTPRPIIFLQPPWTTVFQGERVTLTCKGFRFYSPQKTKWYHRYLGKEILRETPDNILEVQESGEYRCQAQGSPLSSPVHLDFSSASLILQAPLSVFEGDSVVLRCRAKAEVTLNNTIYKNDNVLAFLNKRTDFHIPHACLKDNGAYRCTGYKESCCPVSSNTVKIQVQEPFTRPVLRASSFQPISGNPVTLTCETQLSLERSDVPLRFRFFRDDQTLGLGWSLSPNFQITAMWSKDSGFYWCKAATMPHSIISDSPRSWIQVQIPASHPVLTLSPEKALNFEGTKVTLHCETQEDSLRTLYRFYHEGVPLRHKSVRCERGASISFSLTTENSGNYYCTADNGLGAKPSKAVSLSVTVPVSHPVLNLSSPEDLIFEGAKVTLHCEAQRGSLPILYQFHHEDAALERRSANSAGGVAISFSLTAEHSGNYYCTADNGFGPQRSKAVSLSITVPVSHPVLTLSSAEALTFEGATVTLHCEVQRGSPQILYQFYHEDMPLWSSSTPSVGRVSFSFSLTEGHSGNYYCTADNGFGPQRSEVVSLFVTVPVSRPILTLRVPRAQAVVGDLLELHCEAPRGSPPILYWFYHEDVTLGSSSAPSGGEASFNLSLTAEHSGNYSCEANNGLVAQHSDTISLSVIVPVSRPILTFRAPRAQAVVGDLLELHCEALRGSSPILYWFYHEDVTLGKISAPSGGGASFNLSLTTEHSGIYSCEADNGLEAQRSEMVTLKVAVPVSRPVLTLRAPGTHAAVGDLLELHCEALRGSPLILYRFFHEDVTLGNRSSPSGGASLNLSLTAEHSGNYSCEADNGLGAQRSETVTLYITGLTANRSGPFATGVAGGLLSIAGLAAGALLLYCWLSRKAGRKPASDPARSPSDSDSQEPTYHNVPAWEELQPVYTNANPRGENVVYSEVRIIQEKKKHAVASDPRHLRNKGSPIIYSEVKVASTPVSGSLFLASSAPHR
# Assay method text: phage clone screening on cells
Experimental endpoint: binding result

ET200-007 (scFv, screened as phage clone; entry is VL-linker-VH-His tag-HA tag) scFv: SYVLTQPLSVSVAPGKTARITCGGNNIGSKTVHWYQQKPGQAPVLVIYYDSDRPSGIPERFSGSNSGNTATLTISRVEAGDEADYYCQVWDSSSDHRVFGGGTKLTVLGSRGGGGSGGGGSGGGGSLEMAQVQLQESGPGLVKPSETLSLTCNVSGYSISSGYFWGWIRQPPGKGLEWIGSIYHSRSTYYNPSLKSRVTISVDTSKNQFSLKLNSVTAADTAVYYCARGYGYFDYWGQGTLVTVSSTSGQAGQHHHHHHGAYPYDVPDYAS | binds
ET200-021 (scFv, screened as phage clone; entry is VL-linker-VH-His tag-HA tag) scFv: QSVLTQPPSVSAAPGQKVTISCSGSNSNIGNNYVSWYQQLPGTAPKLLIYDNNKRPSGIPDRFSGSRSGTSATLGITGLQTGDEADYYCGTWNTTVTPGYVFGTGTKVTVLGSRGGGGSGGGGSGGGGSLEMAEVQLVQSGAEVKKPGASVKVSCKASGYTFTSYGISWVRQAPGQGLEWMGWISAYNGNTNYAQKLQGRVTMTTDTSTSTAYMELRSLRSDDTAMYYCARSVYDLDTWGQGTLVTVSSTSGQAGQHHHHHHGAYPYDVPDYAS | binds
